# test.system: Large T antigen (Simian virus 40) (UniProt P03070)
# Sequence (P03070 whole entry, looked up): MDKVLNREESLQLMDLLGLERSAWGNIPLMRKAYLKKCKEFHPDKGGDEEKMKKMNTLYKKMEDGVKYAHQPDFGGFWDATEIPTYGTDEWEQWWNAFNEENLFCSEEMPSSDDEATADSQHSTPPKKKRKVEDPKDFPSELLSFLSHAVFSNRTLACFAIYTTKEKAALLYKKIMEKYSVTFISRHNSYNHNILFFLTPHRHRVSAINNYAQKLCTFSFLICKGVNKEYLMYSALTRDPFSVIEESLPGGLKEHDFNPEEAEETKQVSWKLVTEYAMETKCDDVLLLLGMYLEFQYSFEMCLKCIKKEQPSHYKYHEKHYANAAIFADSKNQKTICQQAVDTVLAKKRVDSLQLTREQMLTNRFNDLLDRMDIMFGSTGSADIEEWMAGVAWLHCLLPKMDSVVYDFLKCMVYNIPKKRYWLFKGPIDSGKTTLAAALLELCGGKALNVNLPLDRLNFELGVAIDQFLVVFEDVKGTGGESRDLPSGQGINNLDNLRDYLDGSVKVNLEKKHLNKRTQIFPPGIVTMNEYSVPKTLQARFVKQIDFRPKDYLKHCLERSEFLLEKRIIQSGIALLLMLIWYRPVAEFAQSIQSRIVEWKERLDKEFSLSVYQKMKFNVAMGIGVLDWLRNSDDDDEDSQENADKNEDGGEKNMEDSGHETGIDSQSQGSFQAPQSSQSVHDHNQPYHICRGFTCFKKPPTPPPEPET
# assay.info: SV40 large T antigen inhibitors, biochemical (AID 1903)
# run.conditions: SV40 large T antigen ATPase/helicase inhibition assay; at 20 µM; stronger effect = higher value
In all, about 310,000 compounds went through this assay and about 1,200 (0.39%) were called active. Not all results are given here. Entries with a potency or affinity are not part of this list.
value.type: inhibition (%)
Numbers only, in %.

Quick batch: inhibition for everything below.
1. Oc1cccc(/C=N/N2CCN(c3ccccn3)CC2)c1
2. Cc1ccc(/C=N/N2CCN(c3ccccn3)CC2)cc1
3. O=C(NC(=S)Nc1ccc(S(=O)(=O)N2CCCCC2)cc1)c1ccc(Cl)cc1
4. Cn1cccc1/C=N/N1CCN(Cc2ccc(Cl)cc2)CC1
5. CC(=O)Nc1ccc(/C=N/NC(=O)c2cccc(S(=O)(=O)N3CCOCC3)c2)cc1

(A)
1. 27.9
2. 3.29
3. 1.56
4. 33.2
5. 8.56

Quick batch: inhibition for everything below.
1. COc1cc(/C=N/NC(=O)c2cccc(S(=O)(=O)N3CCCCC3)c2)cc(Br)c1O
2. CN1C(=O)C2C(c3ccc(N(C)C)cc3)NN(Cc3ccccc3)C2C1=O (configuration not stated)
3. Cn1c(=O)oc2cc(S(=O)(=O)NC3CCCCC3)ccc21
4. C=CCn1cc(CN2CCC(C(=O)Nc3cccc(-c4cccc(F)c4)c3)CC2)c(C)n1
5. COc1ccc(-c2noc(N3CCC(C(=O)NCCCN4CCCCC4)CC3)n2)cc1
6. Cc1ccc(S(=O)(=O)N2CCN(S(=O)(=O)N(C)C)CC2)c(C)c1
7. CCOC(=O)N1CCN(S(=O)(=O)c2ccc(OCC(=O)OC)c(Cl)c2)CC1

(A)
10.6
19.9
-17.1
9.97
11.4
3.46
-13.8

Quick batch: inhibition for everything below.
1. CCC(=O)Nc1ccc(C(=O)NNC(=O)c2cccc(C)c2)cc1
2. CS(=O)(=O)N1CCc2cc(S(=O)(=O)N3CCCCC3)ccc21
3. CCOc1cc(/C=N/NC(=O)c2cccc(S(=O)(=O)N3CCCC3)c2)ccc1OCC(=O)N(C)C
4. Cc1cc2cc(CNC(=O)Nc3ccccc3)ccc2n1C
5. C(=N\N1CCN(c2ccccn2)CC1)/c1ccccn1
6. COCC(C)NC(=O)c1noc2c1CCc1cc(OC)ccc1-2 (configuration not stated)
7. O=[N+]([O-])c1ccccc1CNCCCCO
8. COc1ccc(C2=NN(Cc3ccccc3)C3C(=O)NC(=O)C23)cc1 (configuration not stated)

(A)
[5.14, 11.4, 0.99, 4.59, 10.2, -0.97, 0.09, 4.68]

Quick batch: inhibition for everything below.
1. COc1ccc(/C=N/NC(=O)Cc2csc(Nc3cccc(C(F)(F)F)c3)n2)c(OC)c1
2. Cn1cccc1/C=N/N1CCN(c2ccccc2)CC1

(A)
1: 4.64; 2: 26.4
